Origin of values: patent US9597314B2

biological target: V1a (Homo sapiens, UniProt P37288); experiment: Human vasopression V1a receptor binding assay; set-up: host or cells: CHO cells (hV1a cell line), whole adherent cells; settings: hV1a cell line (CHO), 1 nM 3H-AVP; Table 17; read-out: V1a Binding Affinity (IC50 (nM))
Sequence (P37288 whole entry): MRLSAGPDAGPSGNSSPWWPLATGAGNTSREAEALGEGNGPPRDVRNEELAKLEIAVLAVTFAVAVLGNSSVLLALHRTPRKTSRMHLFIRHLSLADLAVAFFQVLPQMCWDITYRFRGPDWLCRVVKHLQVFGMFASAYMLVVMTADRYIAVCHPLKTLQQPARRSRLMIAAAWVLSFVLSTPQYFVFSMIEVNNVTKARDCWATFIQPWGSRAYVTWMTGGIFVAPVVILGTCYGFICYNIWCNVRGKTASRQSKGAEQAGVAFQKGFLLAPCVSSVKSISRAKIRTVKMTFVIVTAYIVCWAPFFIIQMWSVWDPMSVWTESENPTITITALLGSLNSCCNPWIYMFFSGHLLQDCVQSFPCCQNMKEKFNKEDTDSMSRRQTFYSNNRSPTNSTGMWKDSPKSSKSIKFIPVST
quantity_name: IC50 (nM)

// solved cases for IC50 follow
# compound, subject_of_test, quantity_name, endpoint_value
data = [
    ("O=C(NCc1cccc(C(F)(F)F)c1)[C@@H](CC(=O)N1CCC(CCN2CCCCC2)CC1)N1C(=O)[C@@H](N2C(=O)OC[C@@H]2c2ccccc2)[C@H]1/C=C/c1ccccc1 [Example 134A]", "V1a (Homo sapiens, UniProt P37288)", "IC50", 12.9),
    ("O=C(NC1CCCc2ccccc21)C(CCC(=O)N1CCN(C2CCCCC2)CC1)N1C(=O)C(N2C(=O)OCC2c2ccccc2)C1C=Cc1ccccc1 (single isomer, unassigned) [Example 215]", "V1a (Homo sapiens, UniProt P37288)", "IC50", 0.61),
    ("O=C(N[C@@H]1CCCc2ccccc21)[C@H](CCC(=O)N1CCN(CCCO)CC1)N1C(=O)[C@@H](N2C(=O)OC[C@@H]2c2ccccc2)[C@H]1/C=C/c1ccccc1 [Example 221BI]", "V1a (Homo sapiens, UniProt P37288)", "IC50", 56),
]

(a) O=C(NCc1cccc(C(F)(F)F)c1)[C@H](CCC(=O)N1CCC(CCN2CCCCC2)CC1)N1C(=O)[C@@H](N2C(=O)OC[C@@H]2c2ccccc2)[C@H]1/C=C/c1ccccc1 [Example 120A]
(b) COc1ccc(OC)c(CNC(=O)[C@H](CCC(=O)N2CCN(C3CCCCC3)CC2)N2C(=O)[C@@H](N3C(=O)OC[C@@H]3c3ccccc3)[C@H]2/C=C/c2ccccc2)c1
(c) CN(Cc1cccc(C(F)(F)F)c1)C(=O)[C@H](CCC(=O)N1CCN(C2CCCCC2)CC1)N1C(=O)[C@@H](N2C(=O)OC[C@@H]2c2ccccc2)[C@H]1/C=C/c1ccccc1
// ascending sort on recorded IC50 # list labels per requested ordering
c, b, a

###

biological target: V1a (Homo sapiens, UniProt P37288); test: Human vasopression V1a receptor binding assay; design: host or cells: CHO cells (hV1a cell line), whole adherent cells; conditions: hV1a cell line (CHO), 1 nM 3H-AVP; Table 17; read-out: V1a Binding Affinity (IC50 (nM))
quantity_name: IC50 (nM)

# compound, scale_unit, IC50
data = [
    ("CCN1CCN(C(=O)CC[C@@H](C(=O)N[C@@H]2CCCc3ccccc32)N2C(=O)[C@@H](N3C(=O)OC[C@@H]3c3ccccc3)[C@H]2/C=C/c2ccccc2)CC1 [Example 221BD]", "nM", 2.7),
]

(P) CCCN1CCN(C(=O)CC[C@@H](C(=O)NCc2cccc(C(F)(F)F)c2)N2C(=O)[C@@H](N3C(=O)OC[C@@H]3c3ccccc3)[C@H]2/C=C/c2ccccc2)CC1 [Example 120B]
(Q) O=C(NC1CCCc2ccccc21)C(CCC(=O)N1CCN(C2CCCCC2)CC1)N1C(=O)C(N2C(=O)OCC2c2ccccc2)C1C=Cc1ccccc1 (single isomer, unassigned) [Example 214]
Min IC50? P | Q API: response body contains the label of the selected item.
Q
